- Tested on: Zika virus NS2B-NS3 protease (unlinked complex)
- Measurement Protocol: Primary screen GU Rhodamine qHTS for Zika virus inhibitors: Unlinked NS2B-NS3 protease assay (AID 1347159); also: nearly all actives have a fitted effect of over 60% in size
- Experimental Parameters: Recombinant ZIKV NS2B-NS3 protease, Rhodamine110 substrate fluorescence; series mostly up to 107 µM
Inconclusive results are not listed. Activity calls are given as the source filed them. Calls follow the shape of the dose curve; as a rule, active = well fitted inhibition curve with a large enough effect; inconclusive = small, poorly fitted or top-dose-only effect; inactive = no such curve, though single readings can be large or run the other way.
Possible outcomes: active, inactive

Compound: COc1cc(C)[nH]c(=O)c1CNC(=O)c1c(C)n([C@H](C)C2CCOCC2)c2ccccc12
Discrete Label: inactive

Compound: CC(C)(C)c1cc(C(C)(C)C)c2c(c1)C(O)(C(F)(F)F)C(=O)O2 (stereo not drawn)
Discrete Label: active

Compound: N#CC(OC1OC(COC2OC(CO)C(O)C(O)C2O)C(O)C(O)C1O)c1ccccc1 (stereo not drawn)
Discrete Label: inactive
